Let's look at some compounds and their measured growth.
Tested on: TK-10 renal
Experiment: NCI-60 one-dose screen, 48 h (100 = growth as untreated, 0 = no growth, -100 = all killed)
Conditions: 10 µM unless noted
About 83,000 compounds went through this panel and 20% of them were active in at least one assay; those are over-represented in the sample as a whole.
property-name: growth (%)

[[record]]
compound = "O=C1C(Cl)=C(NCCCN2CCOCC2)C(=O)c2ccccc21"
display_unit = "%"
value_reported = 131

[[record]]
compound = "Cc1cc(C)c(S(=O)O)c(C)c1"
display_unit = "%"
value_reported = 104

[[record]]
compound = "COC(=O)CCC(=O)c1ccccc1"
display_unit = "%"
value_reported = 118

[[record]]
compound = "COc1ccc(/C=N/NC(=O)c2cnn3c2NC(c2ccccc2)C3)cc1OC1CCCC1 (stereo unspecified)"
display_unit = "%"
value_reported = 109

[[record]]
compound = "COc1nc2c(cc1S(=O)(=O)c1ccccc1)CCc1c-2cnn1-c1ccccc1"
display_unit = "%"
value_reported = 67.9

[[record]]
compound = "NS(=O)(=O)c1ccc(C(=O)N/N=C(\\CS(=O)(=O)c2ccccc2)c2cc3cc(Br)ccc3o2)cc1"
display_unit = "%"
value_reported = 107

[[record]]
compound = "O=C1N/C(=C\\c2ccccc2)c2ncccc21"
display_unit = "%"
value_reported = 121

[[record]]
compound = "O=C1NC(=S)S/C1=C\\c1cccc([N+](=O)[O-])c1"
display_unit = "%"
value_reported = 107

[[record]]
compound = "CN1CCc2c(c3ccccc3c3ccccc23)C1"
display_unit = "%"
value_reported = 60.9

[[record]]
compound = "COc1ccc(OC2=CC(=O)c3ccc(C)nc3C2=O)cc1"
display_unit = "%"
value_reported = 112

[[record]]
compound = "COC(=O)C1C2CC3c4[nH]c5cc(OC)ccc5c4CCN3CC2CC(OC2CCCCO2)C1OC (stereo unspecified)"
display_unit = "%"
value_reported = 104

